B1: SNX3 (parent)
chain: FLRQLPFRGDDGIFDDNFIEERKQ

Variants of: B1
assay explanation: protein stability index of a GFP-peptide fusion (GPS, HEK-293T) (PSI 1-6); higher = more stable;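 further: lentivirally expressed fusions sorted by FACS into six bins by GFP to DsRed ratio, PSI derived from sequencing read proportions per bin multiplied by bin number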
condition description: c terminus: a fixed tail appended
readout type: protein stability index
Give bare numbers.

The recorded protein stability index for `I19A` is 4.03

The recorded protein stability index for `R8T` is 3.97

// batch mode: one protein stability index value per listed entry
1. F7P
2. R22Y
3. D16K

Result:
2.62
2.31
3.86

// batch mode: one protein stability index value per listed entry
1. Q4Y
2. D11M
3. L2D
4. D11F
5. R8Y
6. G9N
7. F14V
8. G12P

Result:
1.48
3.05
4.72
2.74
3.96
2.72
3.81
2.74
